System: NCI-H596
experimental.details: relative viability (nuclei count vs DMSO), 5 days (fraction); higher = more cells survive
conditions: first compound 0.253 µM
We label by threshold. Values of relative viability strictly beneath 0.8 are 1.0. Values of 0.8 and up are 0.0.

Here are 4 compounds together with their reported answers.
{"compound": "C=C1C(=O)O[C@@H](CCCCCCCC)[C@@H]1C(=O)O [C-75] + COc1cc2c(Oc3ccc(NC(=O)C4(C(=O)Nc5ccc(F)cc5)CC4)cc3F)ccnc2cc1OCCCN1CCOCC1 [Foretinib] (partner 0.25 µM)", "system.under.test": "NCI-H596", "qualitative.label": 0.0}
{"compound": "Oc1nc(-c2ccc(C(F)(F)F)cc2)nc2c1CSCC2 [XAV939] + CC1(C)CCC(c2ccc(Cl)cc2)=C(CN2CCN(c3ccc(C(=O)NS(=O)(=O)c4ccc(N[C@H](CCN5CCOCC5)CSc5ccccc5)c(S(=O)(=O)C(F)(F)F)c4)cc3)CC2)C1 [Navitoclax] (partner 0.5 µM)", "system.under.test": "NCI-H596", "qualitative.label": 0.0}
{"compound": "Oc1nc(-c2ccc(C(F)(F)F)cc2)nc2c1CSCC2 [XAV939] + CC(C)C[C@H](NC(=O)[C@H](Cc1ccccc1)NC(=O)c1cnccn1)B(O)O [Bortezomib] (partner 0.002 µM)", "system.under.test": "NCI-H596", "qualitative.label": 0.0}
{"compound": "C=C1C(=O)O[C@@H](CCCCCCCC)[C@@H]1C(=O)O [C-75] + Cc1cc(Nc2cc(N3CCN(C)CC3)nc(Sc3ccc(NC(=O)C4CC4)cc3)n2)n[nH]1 [Tozasertib] (partner 0.1 µM)", "system.under.test": "NCI-H596", "qualitative.label": 0.0}

Kindly consider the entry below.
# input Does C=C1C(=O)O[C@@H](CCCCCCCC)[C@@H]1C(=O)O [C-75] + N=C(N)NC(=N)NCCc1ccccc1 [Phenformin] (partner 250 µM) have relative viability strictly under 0.8?
# output 1.0

----------
Tested on: NCI-H1437
experimental.details: relative viability (nuclei count vs DMSO), 5 days (fraction); higher = more cells survive
conditions: first compound 0.1265 µM
We begin with a simple list: items and their reported relative viability.
// response body must contain only the number

Examples with answers:
{"compound": "O=C(O)c1ccc(-c2c[nH]c3ncc(-c4ccccc4)cc23)cc1C1CCCC1 + COc1cccc2cc(-c3nc([C@H]4CC[C@H](C(=O)O)CC4)n4ncnc(N)c34)[nH]c12 [OSI-027] (partner 0.5 µM)", "reported.result": 0.926}
{"compound": "O=C(O)c1ccc(-c2c[nH]c3ncc(-c4ccccc4)cc23)cc1C1CCCC1 + CC(=O)Nc1cccc(-n2c(=O)n(C3CC3)c(=O)c3c(Nc4ccc(I)cc4F)n(C)c(=O)c(C)c32)c1 [Trametinib] (partner 0.02 µM)", "reported.result": 0.609}
{"compound": "O=C(O)c1ccc(-c2c[nH]c3ncc(-c4ccccc4)cc23)cc1C1CCCC1 + Cc1cc(Nc2cc(N3CCN(C)CC3)nc(Sc3ccc(NC(=O)C4CC4)cc3)n2)n[nH]1 [Tozasertib] (partner 0.1 µM)", "reported.result": 0.466}
{"compound": "O=C(O)c1ccc(-c2c[nH]c3ncc(-c4ccccc4)cc23)cc1C1CCCC1 + CCNC(=O)c1noc(-c2cc(C(C)C)c(O)cc2O)c1-c1ccc(CN2CCOCC2)cc1 [Luminespib] (partner 0.01 µM)", "reported.result": 1.07}

In the following, a different compound is considered.
# input What does the record list as relative viability for O=C(O)c1ccc(-c2c[nH]c3ncc(-c4ccccc4)cc23)cc1C1CCCC1 + O=C(CCCCCCC(=O)Nc1ccccc1)NO [Vorinostat] (partner 1 µM) ?
# output 0.814

----------
System: NCI-H2087
experimental.details: relative viability (nuclei count vs DMSO), 5 days (fraction); higher = more cells survive
conditions: first compound 2.53 µM
property.name: relative viability
// response body must contain only the number

Examples with answers:
{"molecule": "C=C1C(=O)O[C@@H](CCCCCCCC)[C@@H]1C(=O)O [C-75] + Cc1nc(Nc2ncc(C(=O)Nc3c(C)cccc3Cl)s2)cc(N2CCN(CCO)CC2)n1 [Dasatinib] (partner 0.075 µM)", "relative viability": 0.829}
{"molecule": "Oc1nc(-c2ccc(C(F)(F)F)cc2)nc2c1CSCC2 [XAV939] + Nc1ncn([C@H]2C[C@H](O)[C@@H](CO)O2)c(=O)n1 [Decitabine] (partner 2 µM)", "relative viability": 0.243}
{"molecule": "Oc1nc(-c2ccc(C(F)(F)F)cc2)nc2c1CSCC2 [XAV939] + COc1cc2c(Oc3ccc(NC(=O)C4(C(=O)Nc5ccc(F)cc5)CC4)cc3F)ccnc2cc1OCCCN1CCOCC1 [Foretinib] (partner 0.25 µM)", "relative viability": 0.677}
{"molecule": "C=C1C(=O)O[C@@H](CCCCCCCC)[C@@H]1C(=O)O [C-75] + Cc1nc(NC(=O)N2CCC[C@H]2C(N)=O)sc1-c1ccnc(C(C)(C)C(F)(F)F)c1 [Alpelisib] (partner 2 µM)", "relative viability": 0.682}
{"molecule": "C=C1C(=O)O[C@@H](CCCCCCCC)[C@@H]1C(=O)O [C-75] + O=C(CCCCCCC(=O)Nc1ccccc1)NO [Vorinostat] (partner 1 µM)", "relative viability": 0.635}

In the following, a different molecule is considered.
# input What does the record list as relative viability for Oc1nc(-c2ccc(C(F)(F)F)cc2)nc2c1CSCC2 [XAV939] + Cc1nc(Nc2ncc(C(=O)Nc3c(C)cccc3Cl)s2)cc(N2CCN(CCO)CC2)n1 [Dasatinib] (partner 0.075 µM) ?
# output 0.689

----------
Tested on: 201T
experimental.details: relative viability (nuclei count vs DMSO), 5 days (fraction); higher = more cells survive
conditions: first compound 0.8 µM
property.name: relative viability
// response body must contain only the number

# input What does the record list as relative viability for Oc1nc(-c2ccc(C(F)(F)F)cc2)nc2c1CSCC2 [XAV939] + COc1cccc2cc(-c3nc([C@H]4CC[C@H](C(=O)O)CC4)n4ncnc(N)c34)[nH]c12 [OSI-027] (partner 0.5 µM) ?
# output 0.575

# input What does the record list as relative viability for Oc1nc(-c2ccc(C(F)(F)F)cc2)nc2c1CSCC2 [XAV939] + CS(=O)(=O)CCNCc1ccc(-c2ccc3ncnc(Nc4ccc(OCc5cccc(F)c5)c(Cl)c4)c3c2)o1 [Lapatinib] (partner 2 µM) ?
# output 0.948

# input What does the record list as relative viability for Oc1nc(-c2ccc(C(F)(F)F)cc2)nc2c1CSCC2 [XAV939] + O=C(CCCCCCC(=O)Nc1ccccc1)NO [Vorinostat] (partner 1 µM) ?
# output 0.832

----------
Tested on: A-427
experimental.details: relative viability (nuclei count vs DMSO), 5 days (fraction); higher = more cells survive
conditions: first compound 0.8 µM
We begin with a simple list: items and their reported relative viability.
// response body must contain only the number

Examples with answers:
{"molecule": "C=C1C(=O)O[C@@H](CCCCCCCC)[C@@H]1C(=O)O [C-75] + CS(=O)(=O)CCNCc1ccc(-c2ccc3ncnc(Nc4ccc(OCc5cccc(F)c5)c(Cl)c4)c3c2)o1 [Lapatinib] (partner 2 µM)", "relative viability": 1.02}
{"molecule": "Oc1nc(-c2ccc(C(F)(F)F)cc2)nc2c1CSCC2 [XAV939] + Cc1nc(NC(=O)N2CCC[C@H]2C(N)=O)sc1-c1ccnc(C(C)(C)C(F)(F)F)c1 [Alpelisib] (partner 2 µM)", "relative viability": 1.03}
{"molecule": "C=C1C(=O)O[C@@H](CCCCCCCC)[C@@H]1C(=O)O [C-75] + COc1cc2c(Oc3ccc(NC(=O)C4(C(=O)Nc5ccc(F)cc5)CC4)cc3F)ccnc2cc1OCCCN1CCOCC1 [Foretinib] (partner 0.25 µM)", "relative viability": 0.969}
{"molecule": "C=C1C(=O)O[C@@H](CCCCCCCC)[C@@H]1C(=O)O [C-75] + Cc1nc(NC(=O)N2CCC[C@H]2C(N)=O)sc1-c1ccnc(C(C)(C)C(F)(F)F)c1 [Alpelisib] (partner 2 µM)", "relative viability": 1.14}
{"molecule": "Oc1nc(-c2ccc(C(F)(F)F)cc2)nc2c1CSCC2 [XAV939] + C[C@]1(O)C[C@@H](c2nc(-c3ccc4ccc(-c5ccccc5)nc4c3)c3c(N)nccn32)C1 [Linsitinib] (partner 1 µM)", "relative viability": 1.08}
{"molecule": "Oc1nc(-c2ccc(C(F)(F)F)cc2)nc2c1CSCC2 [XAV939] + Cc1cc(Nc2cc(N3CCN(C)CC3)nc(Sc3ccc(NC(=O)C4CC4)cc3)n2)n[nH]1 [Tozasertib] (partner 0.1 µM)", "relative viability": 0.19}

In the following, a different molecule is considered.
# input What does the record list as relative viability for C=C1C(=O)O[C@@H](CCCCCCCC)[C@@H]1C(=O)O [C-75] + CC(=O)c1c(C)c2cnc(Nc3ccc(N4CCNCC4)cn3)nc2n(C2CCCC2)c1=O [Palbociclib] (partner 0.5 µM) ?
# output 0.49
